Tested on: Fibroblast
Assay: Multiplex assay against human fibroblast
Format: toxicity, cell-based
Settings: 24 h, 10 µM, compound concentration 10 uM, replicate 2
Item-by-item account of Population Tubulin-Different-Phenotype (%)
Quick reminder: number only, in %, skip the unit.

// known answers, use as guide
For record CC(C)(C)c1cnc(CSc2cnc(NC(=O)C3CCNCC3)s2)o1 [BMS-387032] the listed Population Tubulin-Different-Phenotype (%) is 50

For record O=C(O)c1ccc2cc(-c3ccc(O)c(C45CC6CC(CC(C6)C4)C5)c3)ccc2c1 [O-DEMETHYLATED ADAPALENE] the listed Population Tubulin-Different-Phenotype (%) is 28

Continuing:
For record CCOc1cc(N2CCC(O)CC2)ccc1Nc1ncc2c(n1)N(C1CCCC1)CCC(=O)N2C the listed Population Tubulin-Different-Phenotype (%) is 14

For record COc1cc2c(NC3CCN(C(C)C)CC3)nc(N3CCC(F)(F)CC3)nc2cc1OCCCN1CCCC1 the listed Population Tubulin-Different-Phenotype (%) is 96

For record CNc1oc(-c2cccc3ccccc23)nc1C#N the listed Population Tubulin-Different-Phenotype (%) is 26

For record CCn1c(-c2nonc2N)nc2cnc(Oc3cccc(NC(=O)c4ccc(OCCN5CCOCC5)cc4)c3)cc21 [GSK-269962A] the listed Population Tubulin-Different-Phenotype (%) is 100

For record Cc1cn(-c2cc(NC(=O)c3ccc4c(c3)CN(c3cncnc3)C[C@@H]4C)cc(C(F)(F)F)c2)cn1 the listed Population Tubulin-Different-Phenotype (%) is 36

For record N#Cc1cnc(Nc2cc(NC[C@H]3CNCCO3)c(C(F)(F)F)cn2)cn1 [SRA-737] the listed Population Tubulin-Different-Phenotype (%) is 30

For record CN(C)C/C=C/C(=O)Nc1cc2c(Nc3ccc(F)c(Cl)c3)ncnc2cc1O[C@H]1CCOC1.O=C(O)/C=C\C(=O)O.O=C(O)/C=C\C(=O)O [AFATINIB DIMALEATE] the listed Population Tubulin-Different-Phenotype (%) is 82

For record Nc1ccc(C(=O)Nc2cccc(-c3nc(N4CCOCC4)c4oc5ncccc5c4n3)c2)cn1 the listed Population Tubulin-Different-Phenotype (%) is 100

For record CCc1cc2c(cc1CC)CC(NC[C@H](O)c1ccc(O)c3[nH]c(=O)ccc13)C2 [INDACATEROL] the listed Population Tubulin-Different-Phenotype (%) is 86
